- Type: physicochemical
- condition_notes: SGF with pepsin, pH 1.5, 37° C., 0.5 mM; time 1 h
Listing of entries alongside the reported Condition 1 Conversion (%).
endpoint: Condition 1 Conversion (%)

INSERT INTO results (compound, data_value) VALUES
  ('COc1ccc([C@]23CCN(C)[C@H]2CC2(CC3)O[C@@H]([C@@H](O)Cn3c4nc(=O)[nH]c(=O)c-4nc4cc(C)c(C)cc43)[C@@H](CO)O2)cc1OC (stereo partly shown)', 0),
  ('CCON=C1CC[C@@]2(c3ccc(OC)c(OC)c3)CCN(C)[C@H]2C1', 2.1),
  ('CCC(=O)OC1=C[C@@H]2N(C)CC[C@]2(c2ccc(OC)c(OC)c2)CC1', 0),
  ('COc1ccc([C@@]23CCC(=NNCc4cccnc4)C[C@@H]2N(C)CC3)cc1OC', 100),
  ('COc1ccc([C@@]23CCC(=NNC(=O)Nc4cccc(O)c4)C[C@@H]2N(C)CC3)cc1OC', 100),
  ('COc1ccc([C@@]23CCC(=NOc4ccccc4)C[C@@H]2N(C)CC3)cc1OC', 0),
  ('CO/N=C1\CC[C@@]2(c3ccc(OC)c(OC)c3)CCN(C)[C@H]2C1', 11.9),
  ('COc1ccc([C@@]23CCC(=NNC(=O)Nc4cccnc4)C[C@@H]2N(C)CC3)cc1OC', 100),
  ('COc1ccc([C@@]23CCC(OC(C)=O)=C[C@@H]2N(C)CC3)cc1OC', 0),
  ('COc1ccc([C@]23CCN(C)[C@H]2CC2(CC3)OCC(c3ccc([N+](=O)[O-])cc3)O2)cc1OC (stereo partly shown)', 0),
  ('COc1ccc([C@@]23CCC(=NOC(C)(C)C)C[C@@H]2N(C)CC3)cc1OC', 4.2),
  ('COc1ccc([C@]23CCN(C)[C@H]2CC2(CC3)SCCS2)cc1OC', 0),
  ('COc1ccc([C@@]23CCC(=NNc4ccc(C(=O)O)cc4)C[C@@H]2N(C)CC3)cc1OC', 2.1),
  ('COc1ccc([C@@]23CC/C(=N/NC(=O)Nc4ccccc4Cl)C[C@@H]2N(C)CC3)cc1OC', 1),
  ('COc1ccc(NC(=O)NN=C2CC[C@@]3(c4ccc(OC)c(OC)c4)CCN(C)[C@H]3C2)cc1', 91.9),
  ('COc1ccc([C@@]23CCC(=NNc4cnccn4)C[C@@H]2N(C)CC3)cc1OC', 77.4);
